Sourced from ChEMBL document CHEMBL1138645

# Carbonic anhydrase 4 (Homo sapiens): pKi values follow
# Sequence (P22748 whole entry): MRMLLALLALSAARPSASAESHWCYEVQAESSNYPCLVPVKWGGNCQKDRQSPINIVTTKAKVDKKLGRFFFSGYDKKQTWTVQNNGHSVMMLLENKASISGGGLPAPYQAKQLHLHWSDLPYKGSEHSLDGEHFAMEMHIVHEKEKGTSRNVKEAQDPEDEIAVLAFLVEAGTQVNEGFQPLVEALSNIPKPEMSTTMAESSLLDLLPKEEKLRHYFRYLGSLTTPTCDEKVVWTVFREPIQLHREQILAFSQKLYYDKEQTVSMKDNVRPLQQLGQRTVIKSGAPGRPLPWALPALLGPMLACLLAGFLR
Scale explanation: pKi corresponds to minus log10 of a concentration expressed in moles per litre.

NC(=O)OP(=O)([O-])[O-].[Na+].[Na+] [CARBAMOYL PHOSPHATE; DI SODIUM] ... 5.00
O=C([O-])P(=O)([O-])[O-].[Na+].[Na+].[Na+] [FOSCARNET SODIUM] ... 3.09
O=C([O-])O.[Na+] [SODIUM BICARBONATE] ... 2.18

With those in mind, consider the next molecule.
Which measured pKi belongs to O=C([O-])[O-].[Na+].[Na+] [SODIUM CARBONATE] , tested on Carbonic anhydrase 4 (Homo sapiens)? 2.24

* * *

Each record here notes measured Ki.
# SYSTEM_UNDER_TEST: Carbonic anhydrase V (Homo sapiens, UniProt Q9Y2D0+P35218)
# PROCEDURE_SUMMARY: Inhibition constant of anion against human carbonic anhydrase isozyme hCA V
# Assay type: protein assay
Please reply with the bare figure in mM and do not write the unit itself.

Worked cases, answers included:
O=C([O-])O.[Na+] [SODIUM BICARBONATE] ... 82
NC(=O)OP(=O)([O-])[O-].[Na+].[Na+] [CARBAMOYL PHOSPHATE; DI SODIUM] ... 0.0085
O=C([O-])P(=O)([O-])[O-].[Na+].[Na+].[Na+] [FOSCARNET SODIUM] ... 41.7

Any idea what its Ki is? The compound is O=C[O-].[Na+] [SODIUM FORMATE] 9.97

How about O=P([O-])(O)O.[Na+] [SODIUM PHOSPHATE, MONOBASIC] ? 3.3

How about O=C([O-])[O-].[Na+].[Na+] [SODIUM CARBONATE] ? 95

How about O=P([O-])([O-])O.[Na+].[Na+] [SODIUM PHOSPHATE, DIBASIC, ANHYDROUS] ? 4.49
